Test system: BT-549
Assay text: NCI tumour cell line growth inhibition, 48 h
Activity calls are given as the source filed them. No stated cut-off is given here; in the data, active = GI50 up to about 1.1 µM and inactive = higher.
Pick one and only one: Yes for active, No for inactive

Compound	Category label
CC1=NN(c2nc(N)nc(C(C)Sc3cc(Cl)c(C)cc3S(N)(=O)=O)n2)C(C)(C)C1 (centres undefined)	No

Record request — test call for CC(C)C1CC(CO)(CNc2cc(Cl)nc(N)n2)C1 (centres undefined)
No

Record request — test call for Cc1cccc2c(O)c3c(O)cc(O)cc3nc12
No

* * *

System: LOX IMVI
Assay text: NCI tumour cell line growth inhibition, 48 h
Calls of active or inactive are those of the source. No stated cut-off is given here; in the data, active = GI50 up to about 1.1 µM and inactive = higher.
Measured GI50 accompanies every entry in the list below.

Example cases with answers are listed next.
Compound	Result
Cc1nc2ccccc2c(=O)n1NC(=O)c1ccccn1	> 100 µM (inactive)
Cc1ccc(/C=C/C(=O)c2sc(-c3cccnc3)nc2C)cc1	> 100 µM (inactive)
COc1ccc2nc3cc(Cl)ccc3c(Nc3ccccc3-c3ccccc3Nc3c4ccc(Cl)cc4nc4ccc(OC)cc34)c2c1	18.2 µM (inactive)

Note down GI50 recorded for COc1cccc(NC(=O)/C(CC(=O)CC(c2ccccc2)c2c(O)c3ccccc3oc2=O)=N\NC(C)(C)C)c1OC (stereo not drawn)
36.9 µM (inactive)

Note down GI50 recorded for CC1OC(OC2C(OC(=O)[C@]34CCC(C)(C)C[C@H]3C3=CC[C@@H]5[C@@]6(C)CC[C@H](OC7OC(CO)C(O)C(O)C7OC7OC(CO)C(O)C(O)C7O)C(C)(C)[C@@H]6CC[C@@]5(C)[C@]3(C)CC4)OCC(O)C2O)C(O)C(O)C1OC1OCC(O)C(O)C1O (stereo partly drawn)
18.2 µM (inactive)

Note down GI50 recorded for Cn1c(=O)c2nc(CCCCC(=O)O)[nH]c2n(C)c1=O
> 100 µM (inactive)

Note down GI50 recorded for O=[N+]([O-])c1ccc(-c2nn3c(C45CC6CC(CC(C6)C4)C5)nnc3s2)c(Cl)c1
> 100 µM (inactive)

Note down GI50 recorded for O=C(c1ccccc1)c1ccc2[nH]c(-c3c(Cl)c(Cl)c(Cl)c(Cl)c3C(=O)N/N=C\C=C\c3ccccc3)nc2c1
48.9 µM (inactive)

Note down GI50 recorded for CCc1cccc(C(C)C)c1N1C(=O)C(=O)C(c2nc3ccccc3s2)C(=O)C1=O
> 46.2 µM (inactive)

Note down GI50 recorded for Cc1cc(Cl)ccc1NC(=O)CC1SC(NC(=O)c2ccccc2Cl)=NC1=O (stereo not drawn)
21.9 µM (inactive)
